Measured T/C by item
test system: L1210 leukemia ip in BDF1 mice, survival T/C; test: NCI In Vivo Anticancer Drug Screen. Data for tumor model L1210 Leukemia (intraperitoneal) in B6D2F1 (BDF1) mice; conditions: endpoint: mean survival time; dose: 400.0 mg/kg/injection; schedule: Q04DX003 (ip); vehicle: saline with Tween-80; higher = longer survival
Toxic doses and inconclusive results are not listed. Square brackets hold non-standard residues; d marks the D form. Peptide text beside a SMILES is read from it. * marks the point of attachment. ξ: configuration not given here. Cbz = O=C(OCc1ccccc1)*; ξM = CSCCC(N)C(=O)O
readoutKind: T/C

1. OC(CN1CCN(c2ccccc2)CC1)c1cc2ccccc2o1 (stereo unspecified) :: 94 % of control
2. O=[N+]([O-])c1cc(Cl)ccc1O :: 96 % of control
3. COC(=O)C(CCSC)NC(=O)CNC(=O)CNC(=O)OCc1ccccc1 (stereo not drawn) (Cbz-Gly-Gly-[ξM]-OMe) :: 95 % of control
4. C=CCN(CC=C)c1nc(-c2ccccc2)nc(-c2ccccc2)n1 :: 92 % of control
5. O=C(C(=O)c1ccc(Cl)cc1)c1ccc(Cl)cc1 :: 88 % of control
6. CCOC(=O)c1cc(=O)n(-c2ccc([N+](=O)[O-])cc2)n1C :: 94 % of control

* * *

Measured T/C by item
system: L1210 leukemia ip in BDF1 mice, survival T/C; assay: NCI In Vivo Anticancer Drug Screen. Data for tumor model L1210 Leukemia (intraperitoneal) in B6D2F1 (BDF1) mice; details: endpoint: mean survival time; dose: 400.0 mg/kg/injection; schedule: Q01DX001 (ip); vehicle: other; higher = longer survival
Inconclusive results and toxic doses are left out.
readoutKind: T/C

1) CN(C)c1ccc(N=Cc2ccccc2O)cc1.[Co] :: 91 % of control
2) COc1ccc2c(c1)C1CCCCC1SCC2=O (stereo not given) :: 96 % of control
3) CCOC(=O)C(=O)Cc1cnccn1 :: 97 % of control
4) O=C(ON(Cc1ccccc1)Cc1ccccc1)c1ccccc1 :: 103 % of control
5) O=C(CCCC(=O)N/N=C/C1CC=CCC1)N/N=C\C1CC=CCC1 (stereo not given) :: 98 % of control
6) COc1cc(N=Nc2ccc([N+](=O)[O-])cc2C)ccc1N :: 86 % of control
7) O=C(CCCC(=O)N/N=C/c1ccc2ccccc2n1)N/N=C\c1ccc2ccccc2n1 :: 95 % of control
8) C=C(C)C#CC(O)(C(=O)OCC)C1CCCC1 (stereo not given) :: 93 % of control
9) Cc1ccc(C)c(Nc2nc(Cl)nc3ncn(C)c23)c1 :: 94 % of control
10) C(=C\c1ccccc1)/C=N/N=C/C=C/c1ccccc1 :: 94 % of control

* * *

Measured T/C by item
tested on: L1210 leukemia ip in BDF1 mice, survival T/C; assay: NCI In Vivo Anticancer Drug Screen. Data for tumor model L1210 Leukemia (intraperitoneal) in B6D2F1 (BDF1) mice; settings: endpoint: mean survival time; dose: 75.0 mg/kg/injection; schedule: Q01DX001 (ip); vehicle: saline; higher = longer survival
Toxic doses and inconclusive results are not listed.
readoutKind: T/C

1) CCCCCCCCCCCCCCCCOS(=O)(=O)O :: 106 % of control
2) C[N+](C)(C)Cn1nnc2ccccc21 :: 105 % of control
3) Cc1cc2c(cc1C)N(C(=O)CCl)CC(=O)N2 :: 113 % of control
4) CCOP(=O)(Cc1ccc(N(CCI)CCI)cc1)OCC :: 116 % of control
5) Cc1cc2c(cc1C)N(C(=O)CN1CCSCC1)CC(=O)N2 :: 107 % of control
6) COc1cc(-c2c3c(cc4c2OCO4)CC(O)C(C(=O)O)C3)cc(OC)c1OC (configuration not stated) :: 95 % of control
7) Cc1cccc(C(=O)O)c1CC1NCCC2c3ccccc3NC12 (configuration not stated) :: 98 % of control
8) CC(C)C1N=C(N)N=C(N)N1c1ccc(Cl)c(Cl)c1 (configuration not stated) :: 105 % of control
9) O=C1CCC[C@@H]2[C@H]3CCCN4CCC[C@@H](CN12)[C@@H]34 :: 105 % of control
10) OCCN(CCO)Cc1cc(Cl)c2cccnc2c1O :: 102 % of control
11) COC(=O)c1n[nH]c(C)c1N=NN(C)C :: 119 % of control
12) CN1CCCCC1c1ccccc1 (configuration not stated) :: 103 % of control

The values you see were collected from PubChem BioAssay AID248.
